Source: BindingDB's records for doi:10.1021/jm0011169

Task for the reader: assign each of the following compounds its reported pKi.
- target_or_test_system: Dimer of Gag-Pol polyprotein [489-587] (Human immunodeficiency virus 1, UniProt P12497)
- Construct: 489-587
- procedure_details: Protease Inhibition Assay
- experimental_setup: pH 5; 30 °C
Keep it numeric: pKi is minus log10 of the concentration in mol/L.

So, `C=CCS[C@@H](C(=O)N[C@H]1c2ccccc2C[C@H]1O)[C@H](O)[C@@H](O)[C@@H](SCC=C)C(=O)N[C@H]1c2ccccc2C[C@H]1O` ? Its pKi was 7.80

So, `O=C(N[C@H]1c2ccccc2C[C@H]1O)[C@H](SCc1ccccc1)[C@H](O)[C@@H](O)[C@@H](SCc1ccccc1)C(=O)N[C@H]1c2ccccc2C[C@H]1O` ? Its pKi was 8.55

So, `O=C(N[C@H]1c2ccccc2C[C@H]1O)[C@H](Sc1ccccn1)[C@H](O)[C@@H](O)[C@@H](Sc1ccccn1)C(=O)N[C@H]1c2ccccc2C[C@H]1O` ? Its pKi was 6.55

So, `O=C(N[C@H]1c2ccccc2C[C@H]1O)[C@H](SCc1ccccc1F)[C@H](O)[C@@H](O)[C@@H](SCc1ccccc1F)C(=O)N[C@H]1c2ccccc2C[C@H]1O` ? Its pKi was 8.37

So, `O=C(N[C@H]1c2ccccc2C[C@H]1O)[C@H](Sc1ccccc1F)[C@H](O)[C@@H](O)[C@@H](Sc1ccccc1F)C(=O)N[C@H]1c2ccccc2C[C@H]1O` ? Its pKi was 8.64

So, `O=C(N[C@H]1c2ccccc2C[C@H]1O)[C@H](Sc1ccccc1)[C@H](O)[C@@H](O)[C@@H](Sc1ccccc1)C(=O)N[C@H]1c2ccccc2C[C@H]1O` ? Its pKi was 8.74
